Target: T1, THP-1 derived nhIL-23 (human, UniProt Q9NPF7 20-189; P29460 23-328)
T1 sequence (looked up) 1: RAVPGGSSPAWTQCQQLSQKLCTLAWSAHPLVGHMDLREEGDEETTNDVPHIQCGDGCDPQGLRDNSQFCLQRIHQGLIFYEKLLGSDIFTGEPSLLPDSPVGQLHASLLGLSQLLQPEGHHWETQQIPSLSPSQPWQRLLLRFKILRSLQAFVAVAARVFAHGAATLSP
T1 sequence (looked up) 2: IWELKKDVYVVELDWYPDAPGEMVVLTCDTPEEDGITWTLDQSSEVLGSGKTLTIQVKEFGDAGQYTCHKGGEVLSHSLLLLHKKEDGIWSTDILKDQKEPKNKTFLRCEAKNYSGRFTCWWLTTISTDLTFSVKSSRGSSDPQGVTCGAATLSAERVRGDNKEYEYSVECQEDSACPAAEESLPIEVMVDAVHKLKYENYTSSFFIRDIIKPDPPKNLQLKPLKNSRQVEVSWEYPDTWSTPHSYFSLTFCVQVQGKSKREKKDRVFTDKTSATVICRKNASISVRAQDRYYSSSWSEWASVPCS
Assay: cell-based or functional assay
Reported property: Mouse splenocyte (EC50; mIL-17 secretion, Evaluation Method C) (nM)
Provide only the numeric value, understood in nM.

Record excerpt, results attached:
1) ID-L239T (VHH, Relative to ID-L253T: D1E, S19R, R45L, V92R) VHH: EVQLVESGGGQVQPGGSLRLSCESSVSIWSFKVMGWFRQVPGKQLELVATITTGGSPDYSDSVKGRFTISRDYDKRTLYLQMNSLKPEDTARYYCAGRLWAHITSSGHDVWGQGTQVTVSS; 3.84
2) ID-L241T (VHH, Relative to ID-L253T: D1E, S19R, D58H, V92R) VHH: EVQLVESGGGQVQPGGSLRLSCESSVSIWSFKVMGWFRQVPGKQRELVATITTGGSPHYSDSVKGRFTISRDYDKRTLYLQMNSLKPEDTARYYCAGRLWAHITSSGHDVWGQGTQVTVSS; 3.51
3) ID-L251T (VHH, Relative to ID-L253T: D1E, S19R, Q44E, L47F, D58H) VHH: EVQLVESGGGQVQPGGSLRLSCESSVSIWSFKVMGWFRQVPGKEREFVATITTGGSPHYSDSVKGRFTISRDYDKRTLYLQMNSLKPEDTAVYYCAGRLWAHITSSGHDVWGQGTQVTVSS; 5.74

Now consider a different binder.
Which Mouse splenocyte (EC50; mIL-17 secretion, Evaluation Method C) value is on record for ID-L247T (VHH, Relative to ID-L253T: D1E, V40A, R45L) VHH: EVQLVESGGGQVQPGGSLSLSCESSVSIWSFKVMGWFRQAPGKQLELVATITTGGSPDYSDSVKGRFTISRDYDKRTLYLQMNSLKPEDTAVYYCAGRLWAHITSSGHDVWGQGTQVTVSS ? 4.52
